// data source = the supplement of paper PMC8498969

- System: HEK293
- method description: IC50 for inhibition of ZIKV NS1 production
readout label: log10(IC50) (log10 of the value in µM)
// do not treat as linear: log10 of IC50, unit µM

Check out these entries, answers already filled in.
[[record]]
line_notation = "O=c1[nH]nc(Sc2ncc([N+](=O)[O-])s2)n1-c1ccc2c(c1)OCCO2"
readout_label = "log10(IC50)"
reported = 0.90

[[record]]
line_notation = "CC(C)c1ccc(Cn2ccc3c4c(N)nc(NC5CC5)nc4ccc32)cc1"
readout_label = "log10(IC50)"
reported = 0.48

[[record]]
line_notation = "CC(C)C[C@H](NC(=O)CNC(=O)c1cc(Cl)ccc1Cl)B1OC(=O)C(CC(=O)O)(CC(=O)O)O1"
readout_label = "log10(IC50)"
reported = -0.70

[[record]]
line_notation = "COCC[n+]1c2c(n(Cc3cnccn3)c1C)C(=O)c1ccccc1C2=O"
readout_label = "log10(IC50)"
reported = -1.74

[[record]]
line_notation = "OC[C@H](Cc1ccccc1)Nc1nc(Oc2ccc3c(c2)CCC3)nc2c1ncn2Cc1ccc(-c2ccccc2)cc1"
readout_label = "log10(IC50)"
reported = 0.89

[[record]]
line_notation = "CC1=C(O)C(=O)C=C2C1=CC=C1[C@@]2(C)CC[C@@]2(C)[C@@H]3C[C@](C)(C(=O)O)CC[C@]3(C)CC[C@]12C"
readout_label = "log10(IC50)"
reported = 0.53

[[record]]
line_notation = "Cc1nc(N)nc(N)c1-c1ccc(Cl)c(Cl)c1"
readout_label = "log10(IC50)"
reported = 0.30

[[record]]
line_notation = "Cc1ccccc1C(=O)c1ccc(Nc2ccc(Br)cc2N)cc1Cl"
readout_label = "log10(IC50)"
reported = 1.60


Next item in the queue.
Exercise: For the molecule Nc1nc(F)nc2c1ncn2[C@@H]1O[C@H](CO)[C@@H](O)[C@H]1O , what log10(IC50) is on record?
Key: 0.46
